Give ED50 for every item shown.
- Species: Mus musculus
- test: Tested for potentiation of yohimbine toxicity in aggregated mice(Y)
- Type: functional
Give bare numbers, in mg/kg.

Before answering, review these 5 worked examples.
1. CC(N)Cc1nnc2n1-c1ccccc1C(c1ccccc1Cl)=NC2 (configuration not stated) :: 20
2. CN(C)CCc1nnc2n1-c1ccccc1C(c1ccccc1)=NC2 :: 40
3. CN(C)CCc1nnc2n1-c1ccccc1C(c1ccccc1Cl)=NC2 :: 30
4. NCCc1nnc2n1-c1ccc(Cl)cc1C(c1ccccc1)=NC2 :: 50
5. CC(N)Cc1nnc2n1-c1ccccc1C(c1ccccc1)=NC2 (configuration not stated) :: 40

Field: ED50. Fill in for each record below.
1. Clc1ccc2c(c1)C(c1ccccc1)=NCc1nnc(CNCC3CC3)n1-2
2. CSc1ccc2c(c1)C(c1ccccc1)=NCc1nnc(CN(C)C)n1-2

1. 50
2. 40

Hey, can you go through the list below and give me ED50 for every item?
1. Clc1ccc2c(c1)C(c1ccccc1)=NCc1nnc(CN3CCCC3)n1-2
2. CN(C)CCc1nnc2n1-c1ccc(Br)cc1C(c1ccccc1)=NC2
3. CN(C)Cc1nnc2n1-c1ccc(Br)cc1C(c1ccccc1)=NC2
4. CC(c1nnc2n1-c1ccc(Cl)cc1C(c1ccccc1)=NC2)N(C)C (configuration not stated)
5. CN(C)Cc1nnc2n1-c1ccccc1C(c1ccccc1)=NC2
6. CN(C)CCc1nnc2n1-c1ccc(Br)cc1C(c1ccccn1)=NC2
7. C#CCN(C)Cc1nnc2n1-c1ccc(Cl)cc1C(c1ccccc1)=NC2
8. NCCc1nnc2n1-c1ccc(Br)cc1C(c1ccccn1)=NC2

1: 100; 2: 3; 3: 35.4; 4: 17.7; 5: 35.4; 6: 4; 7: 18; 8: 30

Need ED50 for each of these compounds.
1. NCc1nnc2n1-c1ccc(Cl)cc1C(c1ccccc1)=NC2
2. Clc1ccc2c(c1)C(c1ccccc1)=NCc1nnc(CCCN3CCCC3)n1-2
3. C#CCNCc1nnc2n1-c1ccc(Cl)cc1C(c1ccccc1)=NC2
4. CC(N)Cc1nnc2n1-c1ccc(Br)cc1C(c1ccccn1)=NC2 (configuration not stated)
5. C#CCNC(C)c1nnc2n1-c1ccc(Cl)cc1C(c1ccccc1)=NC2 (configuration not stated)
6. CN(C)CCc1nnc2n1-c1ccc(Cl)cc1C(c1ccccc1Cl)=NC2
7. CN(C)CCc1nnc2cc(-c3ccccc3)c3cc(Cl)ccc3n12
8. CN(C)Cc1nnc2n1-c1ccc(Br)cc1C(c1ccccn1)=NC2

1. 35.4
2. 42
3. 21
4. 7
5. 21
6. 29.7
7. 40
8. 29.7

// batch mode: one ED50 value per listed entry
1. CCN(CC)CCCc1nnc2n1-c1ccc(Cl)cc1C(c1ccccc1)=NC2
2. CC(N)Cc1nnc2n1-c1ccc(Cl)cc1C(c1ccccc1)=NC2 (configuration not stated)
3. CN(C)CCc1nnc2n1-c1ccc(Cl)cc1C(c1ccccc1)=NC2
4. CN(C)CCCc1nnc2n1-c1ccc(Cl)cc1C(c1ccccc1Cl)=NC2

56
21
30
25

---

- Species on record: Mus musculus
- test: Tested for antagonism of oxotremorine hypothermia (OX) in mice
- Type: functional
Field: ED50. Provide a value for each of the compounds that follow.

Completed entries (count: 3):
1. CC(N)Cc1nnc2n1-c1ccc(Cl)cc1C(c1ccccc1)=NC2 (stereo unspecified) :: 4.4 mg/kg
2. Clc1ccc2c(c1)C(c1ccccc1)=NCc1nnc(CCCN3CCOCC3)n1-2 :: > 50 mg/kg
3. CN(C)Cc1nnc2n1-c1ccc(Cl)cc1C(c1ccccc1)NC2 (stereo unspecified) :: > 50 mg/kg

Look up ED50 for the entries below, preserving their order.
1. C=CCN(C)Cc1nnc2n1-c1ccc(Cl)cc1C(c1ccccc1)=NC2
2. CN1CCN(Cc2nnc3n2-c2ccc(Cl)cc2C(c2ccccc2)=NC3)CC1
3. NOCc1nnc2n1-c1ccc(Cl)cc1C(c1ccccc1)=NC2

1. > 50 mg/kg
2. > 100 mg/kg
3. 12.5 mg/kg

---

- Species on record: Mus musculus
- test: Tested for antagonism of oxotremorine hypothermia (OX) in mice
- Format: functional
Provide the reported ED50 of each item.
Numbers only, in mg/kg.

1. NCCc1nnc2n1-c1ccccc1C(c1ccccc1)=NC2 :: 40
2. CN(C)Cc1nnc2n1-c1ccc(Br)cc1C(c1ccccc1)=NC2 :: 7.4

Kindly consider the entry below.
Could you share which ED50 value was measured for CCN(CC)OCc1nnc2n1-c1ccc(Cl)cc1C(c1ccccc1)=NC2 ? 5.3

---

- Species: Mus musculus
- test: Tested for antagonism of oxotremorine hypothermia (OX) in mice
- Assay type: functional
Can you tell me ED50 for the items I'm about to list?
Answers are plain numbers, in mg/kg.

// worked examples, ED50 included
1) CN(C)CCCc1nnc2n1-c1ccc(Cl)cc1C(c1ccccc1)=NC2 :: 75
2) CN(C)CCc1nnc2n1-c1ccc(Br)cc1C(c1ccccc1)=NC2 :: 0.9
3) CN(C)CCc1nnc2n1-c1ccccc1C(c1ccccc1)=NC2 :: 10

Provide ED50 values for the following items, in order.
1. NCCc1nnc2n1-c1ccc(Br)cc1C(c1ccccc1)=NC2
2. CCN(CC)CCCc1nnc2n1-c1ccc(Cl)cc1C(c1ccccc1)=NC2
3. NCCc1nnc2n1-c1ccc(Cl)cc1C(c1ccccc1Cl)=NC2
4. NCc1nnc2n1-c1ccc(Cl)cc1C(c1ccccc1)=NC2
5. NCCc1nnc2n1-c1ccc(Br)cc1C(c1ccccn1)=NC2
6. CN(C)CCc1nnc2n1-c1ccc(Br)cc1C(c1ccccn1)=NC2
7. Clc1ccc2c(c1)C(c1ccccc1)=NCc1nnc(CN3CCCC3)n1-2
8. C#CCN(C)Cc1nnc2n1-c1ccc(Cl)cc1C(c1ccccc1)=NC2

1. 7
2. 31.6
3. 29.7
4. 29.7
5. 30
6. 4
7. 56
8. 30

For the compound shown here, NCCc1nnc2n1-c1ccc(Cl)cc1C(c1ccccc1)=NC2 , give the reported ED50. 4.4

---

- Species: Mus musculus
- test: Tested for antagonism of oxotremorine hypothermia (OX) in mice
- Format: functional
observed-property: ED50

1) CN(C)Cc1nnc2n1-c1ccc(Cl)cc1C(c1ccccc1Cl)=NC2 :: > 30 mg/kg

Quick one: give me ED50 for each item below, same order please.
1. Clc1ccc2c(c1)C(c1ccccc1)=NCc1nnc(CCCN3CCCC3)n1-2
2. C[N+](C)([O-])Cc1nnc2n1-c1ccc(Cl)cc1C(c1ccccc1)=NC2

["> 50 mg/kg", "5.3 mg/kg"]

---

Provide the recorded ED50 for the entries that follow.
- Species on record: Mus musculus
- test: Tested for antagonism of nicotine-induced death (D) in mice
- Assay type: functional
Numbers only, in mg/kg.

1. NCCc1nnc2n1-c1ccc(Cl)cc1C(c1ccccc1Cl)=NC2 :: 4.5

Give ED50 for each of the items listed below.
1. CN(C)Cc1nnc2cc(-c3ccccc3)c3cc(Cl)ccc3n12
2. CN(C)Cc1nnc2n1-c1ccc(Br)cc1C(c1ccccn1)=NC2
3. Clc1ccc2c(c1)C(c1ccccc1)=NCc1nnc(CCCN3CCOCC3)n1-2
4. C=CCNCc1nnc2n1-c1ccc(Cl)cc1C(c1ccccc1)=NC2
5. CN(Cc1nnc2n1-c1ccc(Cl)cc1C(c1ccccc1)=NC2)C1CC1
6. CN(C)Cc1nnc2n1-c1ccccc1C(c1ccccc1)=NC2
7. CN(C)Cc1nnc2n1-c1ccc(Cl)cc1C(c1ccccc1)NC2 (stereo unspecified)

89
1
5.6
0.28
0.28
2.8
25

---

So I've got a bunch of compounds here, and I need their ED50 values.
- Species on record: Mus musculus
- test: Tested for antagonism of oxotremorine hypothermia (OX) in mice
- Type: functional
One number for each entry, in mg/kg.

// solved cases for ED50 follow
1. CN(C)CCCN1c2ccccc2CCc2ccccc21 :: 1.3
2. CN(C)CCCc1nnc2n1-c1ccc(Cl)cc1C(c1ccccc1Cl)=NC2 :: 25
3. CC(N)Cc1nnc2n1-c1ccc(Cl)cc1C(c1ccccc1Cl)=NC2 (stereo unspecified) :: 17.7
4. CN(C)CCc1nnc2n1-c1ccc(Cl)cc1C(c1ccccc1)=NC2 :: 6

Field: next compound
Requested read-out: ED50. Entry: CNCc1nnc2n1-c1ccc(Cl)cc1C(c1ccccc1)=NC2 3.7

---

- Species on record: Mus musculus
- test: Tested for antagonism of oxotremorine hypothermia (OX) in mice
- Assay type: functional
observed-property: ED50 (mg/kg)
Give bare numbers, in mg/kg.

Consider the reported ED50 for these compounds:
1. CCN(CC)CCc1nnc2n1-c1ccc(Cl)cc1C(c1ccccc1)=NC2 :: 42
2. CN(C)Cc1nnc2n1-c1ccccc1C(c1ccccc1)=NC2 :: 12.5

Batch: ED50 for all items listed.
1. CSc1ccc2c(c1)C(c1ccccc1)=NCc1nnc(CN(C)C)n1-2
2. CN(C)Cc1nnc2n1-c1ccc(Br)cc1C(c1ccccn1)=NC2
3. CC(c1nnc2n1-c1ccc(Cl)cc1C(c1ccccc1)=NC2)N(C)C (stereo unspecified)

10
12.5
10.5
